Test system: Isolated guinea-pig taenia coli
Measurement Description: calcium-antagonistic activity: inhibition of CaCl2-induced contraction of isolated guinea-pig taenia coli
Assay type: cell-based
Recorded Conditions: Cavia porcellus, Ca^++ -free Krebs solution, 32° C., test compound 5 minutes before CaCl2 (3×10^-4 M), isotonic recording, read-out: IC50 (concentration of the test compound which elicited 50% inhibition of Ca^++ -induced contraction)
Counter-ions that a name gives are not always drawn.
Recorded pIC50 for the following compounds
Value format note: pIC50 is -log10 of concentration (mol/L); just state the number.

Record excerpt, results attached:
COc1ccc(OCCCCN(C)CCOc2ccc3c(c2)OCO3)c(C2Sc3ccccc3N(C)C2=O)c1 (stereo not shown) [Compound A, oxalate] = 6.49
COc1ccc(OCCCCN(C)CCOc2ccc(OC)c(OC)c2)c(C2Sc3ccccc3N(C)C2=O)c1 (stereo not shown) [Compound C, oxalate] = 6.54
COc1ccc(OCCCCN(C)CCc2ccc(OC)c(OC)c2)c(C2Sc3ccccc3N(C)C2=O)c1 (stereo not shown) [Reference Compound, oxalate, reference compound] = 5.49

Lab note: next compound to report on.
## Task Record request: pIC50 value, item COc1ccc(OCCCN(C)CCOc2ccc3c(c2)OCO3)c(C2Sc3ccccc3N(C)C2=O)c1 (stereo not shown) [Compound B, fumarate]
## Result 6.62
